Measured values drawn from patent US20210188980A1 for this set.

IC50 values for the binders below.
# assayedTarget: T1, human PD-1 expressed on cells (human, UniProt Q15116 25-288)
# T1 construct: whole, on cells; also called CHO-K1/huPD-1; CHO-K1-hPD-1 cells
# T1 sequence (Q15116 25-288): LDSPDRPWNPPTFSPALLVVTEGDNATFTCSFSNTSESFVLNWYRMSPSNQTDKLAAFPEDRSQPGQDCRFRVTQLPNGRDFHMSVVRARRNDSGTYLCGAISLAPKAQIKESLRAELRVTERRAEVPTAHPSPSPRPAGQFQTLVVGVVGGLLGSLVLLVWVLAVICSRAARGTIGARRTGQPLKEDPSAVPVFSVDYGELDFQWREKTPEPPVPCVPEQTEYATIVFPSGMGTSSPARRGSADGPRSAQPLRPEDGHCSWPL
# protocol: cell RBA FACS; competitor PD-L1/Fc
readout: IC50 (nM)

| binder | readout | testResult |
| --- | --- | --- |
| HumAb713-13 (antibody, human IgG1, kappa, L234A L235A, V domains shown, humanized mAb713) VH: EVQLVESGGGLVQPGGSLRLSCAASGFTFSDYGMHWVRQAPGKGLEWVSYISSGSYTIYYADTVKGRFTISRDNAKNSLYLQMNSLRDEDTAVYYCARRGGSSHVNVMDYWGQGTTVTVSS VL: DIQMTQSPSSLSASVGDRVTITCKASDHINNWLAWYQQKPGKAPKLLISGATSLETGVPSRFSGSGSGKDYTFTISSLQPEDIATYYCQQYWSPPYTFGGGTKVEIKR | IC50 | 0.7 |
| HumAb713-3 (antibody, human IgG1, kappa, L234A L235A, V domains shown, humanized mAb713; also called HurnAb713-3) VH: EVQLVESGGGLVQPGGSLRLSCAASGFTSSDYGMHWVRQAPGKGLEWVSYISSGSYTIYYADTVKGRFTISRDNAKNSLYLQMNSLRDEDTAVYYCAKRGGSSHVNVMDYWGQGTTVTVSS VL: DIQMTQSPSSLSASVGDRVTITCKASDHINNWLAWYQQKPGKAPKLLIYGATSLETGVPSRFSGSGSGTDFTFTISSLQPEDIATYYCQQYWSPPYTFGGGTKVEIKR | IC50 | 0.77 |
| HumAb713-2 (antibody, human IgG1, kappa, L234A L235A, V domains shown, humanized mAb713) VH: EVQLVESGGGLVQPGGSLRLSCAASGFTFSDYGMHWVRQAPGKGLEWVSYISSGSYTIYYADTVKGRFTISRDNAKNSLYLQMNSLRDEDTAVYYCAKRGGSSHVNVMDYWGQGTTVTVSS VL: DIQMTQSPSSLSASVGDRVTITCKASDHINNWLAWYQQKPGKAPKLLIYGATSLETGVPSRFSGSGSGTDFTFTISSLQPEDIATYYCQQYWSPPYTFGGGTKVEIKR | IC50 | 1.71 |
